Where do the numbers come from? From patent US20240288449A1.

system: MAdCAM-1 (Madcam1 gene expression); assay: Madcam1 gene and protein expression in gut tissues of mice (RT-PCR, IHC, flow cytometry, ELISA); format: in vivo, C57BL/6J mice; conditions: single antibiotic regimen, 7 days conditioning, RT-PCR
metricName: Madcam1 gene expression in mesenteric lymph nodes (mLN)

1) CC[C@H]1OC(=O)[C@H](C)[C@@H](O[C@H]2C[C@@](C)(OC)[C@@H](O)[C@H](C)O2)[C@H](C)[C@@H](O[C@@H]2O[C@H](C)C[C@H](N(C)C)[C@H]2O)[C@](C)(O)C[C@@H](C)C(=O)[C@H](C)[C@@H](O)[C@]1(C)O [erythromycin]	downregulate
2) CC1(C)S[C@@H]2[C@H](NC(=O)[C@H](N)c3ccccc3)C(=O)N2[C@H]1C(=O)O [ampicilline, ampicillin]	downregulate
